Below, each of the molecules is paired with its reported log10 TGI value.
# Tested on: SF-268 CNS
# experiment-notes: NCI tumour cell line growth inhibition, 48 h
Log10 applied to TGI; unit prior to transform: µM.

{"columns": ["molecule", "study-target", "log10 TGI"],
 "data": [
  ["COc1cccc2c1O/C(=C\\c1ncc([N+](=O)[O-])n1C)C2=O", "SF-268 CNS", -0.09],
  ["COc1cc(/C=C2\\C(=O)Nc3ccccc32)cc(OC)c1O", "SF-268 CNS", 1.46]
]}

# input I have this molecule here, "COc1ccc(-c2nc(Sc3c([N+](=O)[O-])ncn3C)n[nH]2)cc1" , and I need its recorded log10 TGI.
# output 1.32

# input I have this molecule here, "COc1ccc2c(c1OC)-c1c(c3ccc([N+](=O)[O-])cc3c(=O)n1CCCN)C2=O" , and I need its recorded log10 TGI.
# output 1.13

# input I have this molecule here, CCN(CC)CC(O)CNc1c2ccc(Cl)cc2nc2ccc(OC)cc12 (stereo not given) , and I need its recorded log10 TGI.
# output 0.47

----------
# Tested on: EKVX NSCLC
# experiment-notes: NCI tumour cell line growth inhibition, 48 h
parameter: TGI

{"columns": ["compound", "TGI"],
 "data": [
  ["CC1OC(Oc2c(-c3cc(O)c(O)c(O)c3)oc3cc(O)cc(O)c3c2=O)C(O)C(O)C1O (centres undefined)", "> 100 µM"]
]}

# input I have this compound here, "COc1ccc(C(=S)N(C)NC(=O)CC(=O)NN(C)C(=S)c2ccc(OC)cc2)cc1" , and I need its recorded TGI.
# output > 100 µM

# input I have this compound here, "[2H]c1nc(C)nc([2H])c1-c1cc(NC[C@@H](C)c2cccc3c(C(=O)NC)ccnc23)ncn1" , and I need its recorded TGI.
# output > 100 µM

# input I have this compound here, "c1ccc2c(c1)Oc1cccc3cccc-2c13" , and I need its recorded TGI.
# output > 100 µM

----------
# Tested on: UACC-257 melanoma
# experiment-notes: NCI tumour cell line growth inhibition, 48 h
Below, each of the compounds is paired with its reported TGI value.

# input I have this compound here, "CC1(C)CC[C@]2(C(=O)Nc3ccccn3)CC[C@]3(C)C(=CC[C@@H]4[C@@]5(C)C/C(=C/c6ccncc6)C(=O)C(C)(C)[C@@H]5CC[C@]43C)[C@@H]2C1" , and I need its recorded TGI.
# output > 100 µM

# input I have this compound here, "NNC(=O)c1ccccc1Nc1nc(-c2cccs2)nc2ccc(Br)cc12" , and I need its recorded TGI.
# output > 100 µM

# input I have this compound here, "ONCCCn1cnc2c(NC3CC3)ncnc21" , and I need its recorded TGI.
# output > 100 µM

----------
# System: COLO 205 colon
# experiment-notes: NCI tumour cell line growth inhibition, 48 h; in the data active = GI50 below about 0.43 µM; inactive = the rest
Your answer must be one of the following: active, inactive

Worked examples, 4 compounds total:
{"columns": ["compound", "label-value"],
 "data": [
  ["Cc1ccc(C2=NN(c3ccc(S(C)(=O)=O)cc3)C(=O)CC2)cc1", "inactive"],
  ["COc1ccc(/C=C/C2C(C#N)=C(N)OC3=C2C(=O)CCC3)cc1 (stereo not given)", "inactive"],
  ["c1ccc(CC(Cc2ccccc2)C2=NCCCN2)cc1", "inactive"],
  ["O=C1/C=C/[C@@H](O)[C@@H]2C[C@@H](O)C[C@H]2/C=C/CCC[C@H](CCc2ccccc2)O1", "active"]
]}

Let us examine a further case.
# input Identify the outcome logged in this assay for the compound shown: CCc1ccc(C(=O)/C=C/C23c4ccccc4C(c4ccccc42)C2C(=O)NC(=O)C23)cc1 (stereo not given)
# output inactive

----------
# System: MALME-3M melanoma
# experiment-notes: NCI tumour cell line growth inhibition, 48 h
Where a SMILES comes first, the peptide text is derived from it.
parameter: TGI

Sample answers from the record:
{"columns": ["compound", "TGI"],
 "data": [
  ["Nc1nc(Cl)c(N=Nc2ccc(Cl)cc2)c(NCC2(CO)CCC(CCc3ccccc3)C2)n1 (stereo not drawn)", "51 µM"],
  ["Cc1csc2nc(-c3ccncc3)cn12", "> 100 µM"],
  ["O=C(NC(Cc1ccc(I)cc1)C(=O)O)c1cccc(Br)c1 (stereo not drawn)", "> 100 µM"],
  ["N/C(=N\\N=C/c1c2ccccc2c(Cl)c2ccccc12)NO", "19.4 µM"],
  ["CCC(C)C(NC(=O)C(NC(=O)C(CC(N)=O)NC(=O)CN)C(C)O)C(=O)NC(C(=O)NC(C)C(=O)NC(C(=O)NC(CCC(=O)O)C(=O)NC(CC(C)C)C(=O)NC(CC(=O)O)C(=O)NC(C(=O)NC(Cc1ccc(O)cc1)C(=O)N1CCCC1C(=O)O)C(C)O)C(C)C)C(C)C (stereo not drawn) (H-GNTIVAVELDTYP-OH; configuration not given here)", "> 50 µM"]
]}

# input I have this compound here, O=C1C2c3[nH]c4ccccc4c3C3CCCCC3C2C(=O)N1c1ccccc1 (stereo not drawn) , and I need its recorded TGI.
# output > 100 µM

# input I have this compound here, COc1ccc(C(NS(=O)(=O)c2ccc(C)cc2)c2c(C(CBr)OC)c3ccccc3n2S(=O)(=O)c2ccccc2)cc1OC (stereo not drawn) , and I need its recorded TGI.
# output > 100 µM

----------
Below, each of the compounds is paired with its reported TGI value.
# Test system: TK-10 renal
# experiment-notes: NCI tumour cell line growth inhibition, 48 h

{"columns": ["smiles-data", "study-target", "TGI"],
 "data": [
  ["NNC(=O)c1ccccc1Nc1nc(-c2cccs2)nc2ccc(Br)cc12", "TK-10 renal", "> 100 µM"],
  ["CC(C)N(CCCNC(=O)Nc1ccc(C(C)(C)C)cc1)C[C@H]1O[C@@H](n2ccc3c(N)ncnc32)[C@H](O)[C@@H]1O", "TK-10 renal", "> 100 µM"]
]}

// moving on: another record for TGI
# input Identify the measured TGI of "O=C(NC(O)(C(F)(F)F)C(F)(F)F)c1ccccc1" for TK-10 renal.
# output > 100 µM

----------
# Tested on: DU-145 prostate
# experiment-notes: NCI tumour cell line growth inhibition, 48 h
Below, each of the compounds is paired with its reported TGI value.

{"columns": ["compound", "TGI"],
 "data": [
  ["c1ccc(CC(Cc2ccccc2)C2=NCCCN2)cc1", "9.75 µM"]
]}

# input I have this compound here, CC/C=C/C(CC)C/C(C)=C\[C@]1(CC)C[C@H](CC)[C@H](CC(=O)O)OO1 (some centres not stated) , and I need its recorded TGI.
# output 1.64 µM

# input I have this compound here, "Cc1cccc2nc3cccc(C(=O)NCCC[N+](C)(CCCNC(=O)c4cccc5nc6cccc(C)c6nc45)Cc4ccc([N+](=O)[O-])n4C)c3nc12" , and I need its recorded TGI.
# output > 100 µM

# input I have this compound here, "Cc1cc(N(CCC#N)CCC#N)ccc1/C=N/NC(=O)c1ccccc1" , and I need its recorded TGI.
# output > 86.2 µM

# input I have this compound here, Cc1c2c(n(C)c1C)C(=O)C1C(C2=O)C2(C)c3ccccc3C1(C)c1ccccc12 (configuration not stated) , and I need its recorded TGI.
# output > 100 µM

# input I have this compound here, "COc1cc(S(=O)(=O)Nc2nc(-c3ccc(N4C(=O)/C(=C\c5cccs5)N=C4c4ccccc4)cc3)cs2)ccc1Cl" , and I need its recorded TGI.
# output > 100 µM

# input I have this compound here, "C/C(=C\COP(=O)(O)OP(=O)(O)O)CCCOCc1ccccc1" , and I need its recorded TGI.
# output > 100 µM

----------
# Tested on: ACHN renal
# experiment-notes: NCI tumour cell line growth inhibition, 48 h
Below, each of the compounds is paired with its reported TGI value.

Sample answers from the record:
{"columns": ["compound", "TGI"],
 "data": [
  ["Cc1nn2c(/C=N/N=C(N)N)c(-c3ccc(Cl)c([N+](=O)[O-])c3)nc2s1", "2.58 µM"],
  ["c1ccc2nc(N/N=C3\\CCCCC3C3CCCCC3)ccc2c1 (configuration not stated)", "20.8 µM"],
  ["CCCCCCCCCCCCCC(=O)NCO", "> 100 µM"],
  ["COc1ccc(/C=C2\\COc3ccc(O)c(O)c3C2=O)cc1", "2 µM"],
  ["CC1(C)CC[C@]2(C(=O)Nc3ccccn3)CC[C@]3(C)C(=CC[C@@H]4[C@@]5(C)C/C(=C/c6ccncc6)C(=O)C(C)(C)[C@@H]5CC[C@]43C)[C@@H]2C1", "5.98 µM"]
]}

# input I have this compound here, O=S(=O)(c1ccccc1)n1c(C(O)c2ccccc2)cc2ccccc21 (configuration not stated) , and I need its recorded TGI.
# output 29.1 µM

# input I have this compound here, "Cn1cc(-c2csc(-c3c[nH]c4ccccc34)n2)c2cnccc21" , and I need its recorded TGI.
# output 3.77 µM

# input I have this compound here, Nc1c(C(=O)Nc2cccc(C(F)(F)F)c2)sc2nc3c(cc12)C(O)CCC3 (configuration not stated) , and I need its recorded TGI.
# output > 68.4 µM

# input I have this compound here, "CSc1cc(-c2cc3ccccc3o2)oc(=O)c1C#N" , and I need its recorded TGI.
# output > 100 µM

# input I have this compound here, "CCCN1C/C(=C\c2ccc(O)c(OC)c2)C(=O)/C(=C/c2ccc(O)c(OC)c2)C1" , and I need its recorded TGI.
# output > 100 µM

# input I have this compound here, Fc1cccc(C2SCC3=Nc4ccccc4CN32)c1 (configuration not stated) , and I need its recorded TGI.
# output > 100 µM

# input I have this compound here, CCC1=CCN(c2ccc(C)cc2)OC1c1ccc(OC)cc1 (configuration not stated) , and I need its recorded TGI.
# output > 100 µM
